For each record, write down the corresponding growth inhibition.
assay: NCI Yeast Anticancer Drug Screen. Data for the rad50 strain (AID 155);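 note: 0% = growth of vehicle-only cultures of the same strain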; conditions: S. cerevisiae rad50 strain growth inhibition; at 50.0 µM; active compounds read high
Compounds without any hit were thinned out: in the full panel of roughly 79,000, 15% have a hit.
Answers are plain numbers, in %.

Take a look at these entries with their results.
| Compound | Unit spec | growth inhibition |
| --- | --- | --- |
| Oc1ccc2c(c1)c1ccccc1c1ncccc21 | % | 46 |
| c1ccc2cc(N=Nc3cccc4ccccc34)ccc2c1 | % | -10.5 |
| O=C(O)NC(c1ccccc1)C(NC(=O)c1ccccc1)c1ccccc1 (centres undefined) | % | -0.45 |

Switching to the query record.
Incoming: What does the record list as growth inhibition for COc1cc2c(c(OC)c1OC)-c1ccc(SC)c(=O)cc1C(N=C(NC1OCC(OC(C)=O)C(OC(C)=O)C1OC(C)=O)SN(NC(=O)OCc1ccccc1)C(=O)OCc1ccccc1)CC2 (centres undefined) ?
Outgoing: 5.6

---

Experiment: NCI Yeast Anticancer Drug Screen. Data for the rad50 strain (AID 155);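 note: 0% = growth of vehicle-only cultures of the same strain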
Conditions: S. cerevisiae rad50 strain growth inhibition; at 50.0 µM
Method: Growth inhibition of yeast strains with defined genetic alterations is measured as a screen for potential anti-cancer activity. Selected strains with alterations in DNA damage repair or cell cycle control were exposed to compounds and growth inhibition was measured relative to vehicle treated controls. The strain used in this assay is rad50
This is part of a sample that, as a whole, favours compounds with a hit. Of some 79,000 tested, about 15% had one in any assay. Activity calls are given as the source filed them. No stated cut-off is given here; in the data, active means growth inhibition above about 70%; inactive means the rest.
Reply using exactly one outcome from TRUE (active), FALSE (inactive)

Check out these entries, answers already filled in.
| Compound | Class |
| --- | --- |
| [N-]=[N+]=Nc1ccc(S(=O)(=O)Oc2cc(OS(=O)(=O)c3ccc(N=[N+]=[N-])cc3)cc(OS(=O)(=O)c3ccc(N=[N+]=[N-])cc3)c2)cc1 | FALSE |
| O=S(=O)(N1CCOCC1)N1CCOCC1 | FALSE |
| CCCCn1nnnc1N | FALSE |
| O=C(c1ccccc1)C1(Cl)CCCCC1 | FALSE |
| CC(=O)OCCCC(C)Nc1ccnc2cc(Cl)ccc12 (stereo unspecified) | FALSE |

Incoming: So what was the verdict on CCN(CC)CCO/N=C1\CC(c2ccc(OC)c(OC)c2)Oc2ccccc21 (stereo unspecified) in this test?
Outgoing: FALSE

Incoming: So what was the verdict on "O=C(C[n+]1ccccc1Cc1ccccc1)c1ccccc1" in this test?
Outgoing: FALSE

Incoming: So what was the verdict on OCC(O)Cn1cnc2c(NO)ncnc21 (stereo unspecified) in this test?
Outgoing: FALSE

Incoming: So what was the verdict on "CCOC(=O)Cn1c(=O)c2nc(SC)sc2n(CC)c1=S" in this test?
Outgoing: FALSE

Incoming: So what was the verdict on CN(C)CC(N)C(=O)O (stereo unspecified) in this test?
Outgoing: FALSE

---

For each record, write down the corresponding growth inhibition.
assay: NCI Yeast Anticancer Drug Screen. Data for the rad50 strain (AID 155);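 note: 0% = growth of vehicle-only cultures of the same strain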; details: S. cerevisiae rad50 strain growth inhibition; at 50.0 µM; active compounds read high
The panel holds about 79,000 compounds, 15% with a hit somewhere; the sample as a whole holds those more often.
Answers are plain numbers, in %.

Take a look at these entries with their results.
| Molecule | growth inhibition [%] |
| --- | --- |
| O=C(O)/C=C/c1ccc(O)c(O)c1 | 18.3 |
| COc1cc(/C=C2/C(=O)N(C(=O)c3ccc(Cl)cc3)N=C2C)cc(OC)c1OC | 10 |

Switching to the query record.
Incoming: What does the record list as growth inhibition for Cc1cc(Cl)ccc1NC(=O)C1C(=O)N(c2ccc(Cl)cc2C)C(=O)/C1=N\NC(N)=S (stereo not drawn) ?
Outgoing: -16.6
